B1: CPEB3 Ribozyme (parent)
chain: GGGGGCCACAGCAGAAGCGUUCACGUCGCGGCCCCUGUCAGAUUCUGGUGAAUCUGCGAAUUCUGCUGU

Variants of: B1
Procedure text: self-cleavage, relative activity (ratio to wild type); higher = more cleavage; co-transcriptional
Label true when self-cleavage >= 0.3; otherwise false.

[
  {
    "Mutation key": "A16U G68C",
    "Label value": "true"
  },
  {
    "Mutation key": "U44G C54G",
    "Label value": "true"
  },
  {
    "Mutation key": "A15C A60U",
    "Label value": "true"
  },
  {
    "Mutation key": "C32U U38C",
    "Label value": "true"
  },
  {
    "Mutation key": "G2U C18G",
    "Label value": "false"
  },
  {
    "Mutation key": "A23U U69A",
    "Label value": "true"
  },
  {
    "Mutation key": "A13C A59G",
    "Label value": "true"
  },
  {
    "Mutation key": "G1C A23U",
    "Label value": "false"
  },
  {
    "Mutation key": "C18G U43G",
    "Label value": "false"
  },
  {
    "Mutation key": "A23C C24A",
    "Label value": "true"
  },
  {
    "Mutation key": "A15U U55C",
    "Label value": "true"
  },
  {
    "Mutation key": "G3U A51C",
    "Label value": "false"
  },
  {
    "Mutation key": "U21A A40C",
    "Label value": "true"
  },
  {
    "Mutation key": "G1C U43C",
    "Label value": "false"
  },
  {
    "Mutation key": "A23G C33U",
    "Label value": "true"
  },
  {
    "Mutation key": "U36C G56U",
    "Label value": "true"
  },
  {
    "Mutation key": "G19U G30A",
    "Label value": "false"
  },
  {
    "Mutation key": "C18A G41C",
    "Label value": "false"
  },
  {
    "Mutation key": "A23G C54G",
    "Label value": "true"
  },
  {
    "Mutation key": "A42C C63A",
    "Label value": "true"
  },
  {
    "Mutation key": "C34A C45U",
    "Label value": "true"
  },
  {
    "Mutation key": "U43G A59C",
    "Label value": "true"
  },
  {
    "Mutation key": "G1U G47U",
    "Label value": "false"
  },
  {
    "Mutation key": "A13C G30U",
    "Label value": "false"
  },
  {
    "Mutation key": "C33A U61C",
    "Label value": "true"
  },
  {
    "Mutation key": "C33A C57G",
    "Label value": "false"
  },
  {
    "Mutation key": "G3C C18G",
    "Label value": "false"
  },
  {
    "Mutation key": "A51G U55G",
    "Label value": "true"
  },
  {
    "Mutation key": "U20A G31C",
    "Label value": "false"
  },
  {
    "Mutation key": "C6G U38C",
    "Label value": "false"
  },
  {
    "Mutation key": "C34A G68C",
    "Label value": "true"
  },
  {
    "Mutation key": "C6G C18A",
    "Label value": "false"
  },
  {
    "Mutation key": "A15U G30U",
    "Label value": "false"
  },
  {
    "Mutation key": "G30U A51U",
    "Label value": "true"
  },
  {
    "Mutation key": "G5A G17U",
    "Label value": "false"
  },
  {
    "Mutation key": "A42G U69C",
    "Label value": "true"
  },
  {
    "Mutation key": "G11C G25A",
    "Label value": "false"
  },
  {
    "Mutation key": "G25A C66U",
    "Label value": "false"
  },
  {
    "Mutation key": "C33A G68A",
    "Label value": "true"
  },
  {
    "Mutation key": "U44A U69G",
    "Label value": "true"
  },
  {
    "Mutation key": "G19A U55C",
    "Label value": "false"
  },
  {
    "Mutation key": "C34A G41U",
    "Label value": "true"
  },
  {
    "Mutation key": "A13C A40U",
    "Label value": "false"
  },
  {
    "Mutation key": "G30A C33A",
    "Label value": "false"
  }
]
